Overview of recorded Titer (μg/ml) Day 6 for various compounds
System: cell line #9
Assay: Induction effects of xanthine derivatives in cell line #9, shake flasks, 6 days at 31° C. (Example 5)
Format: cell-based, Chinese hamster
Settings: 0.5 mM
property-name: Titer (μg/ml) Day 6

- compound: "Cn1c(=O)c2[nH]cnc2n(C)c1=O [aminophylline, dihydrate]"
  system-name: "cell line #9"
  property-name: "Titer (μg/ml) Day 6"
  data-value: "250 µg/mL"
- compound: "CC(C)Cn1c(=O)n(C)c(=O)c2[nH]cnc21"
  system-name: "cell line #9"
  property-name: "Titer (μg/ml) Day 6"
  data-value: "420 µg/mL"
- compound: "CCCC(=O)[O-].[Na+] [butyrate, sodium butyrate]"
  system-name: "cell line #9"
  property-name: "Titer (μg/ml) Day 6"
  data-value: "220 µg/mL"
- compound: "Cn1cnc2c1c(=O)[nH]c(=O)n2C"
  system-name: "cell line #9"
  property-name: "Titer (μg/ml) Day 6"
  data-value: "260 µg/mL"
